Parameter: Inhibition. Scope: all listed entries.
tested on: Plasmodium falciparum; experiment: GSK_TCMDC: Inhibition of Plasmodium falciparum Dd2 in whole red blood cells, using parasite LDH activity as an index of growth. Test compounds present at 2uM; type: functional

Compound	Unit Of Measurement	Inhibition
Nc1ncc(-c2ccsc2)cc1-c1nc2ccccc2[nH]1	%	8
C=CCCCNCC(NCCCNc1cc(=O)c2ccccc2[nH]1)c1cc(Br)cc(Br)c1 (configuration not stated)	%	19
COc1ccc(NC(=O)c2ccc(Br)c(C)c2)cc1N1CCN(Cc2ccccc2)CC1.O=C(O)C(=O)O	%	3
CC(C)Nc1cc(C(=O)N[C@@H](Cc2ccccc2)[C@H](O)CNC2CCOCC2)c(F)c(N2CCCCS2(=O)=O)c1.O=CO	%	98
CC(CCNc1c2ccccc2nc2ccccc12)N1CCN(C)CC1.Cl (configuration not stated)	%	0
Cc1cccc2nc(-c3ccc(-c4ccc(CN5CCN(CCO)CC5)cc4)s3)[nH]c12.O=C(O)C(F)(F)F	%	47
COc1ccc(-n2nc(C(=O)NCCC3=CCCCC3)c3ccccc3c2=O)cc1	%	59
Cl.N#Cc1ccc2c(c1)CCN(CCC1CCC(NC(=O)Nc3ccnc4ccccc34)CC1)C2 (configuration not stated)	%	77
CC(C)C(NC(=O)c1c(F)cccc1F)C(=O)Nc1ccc(Cc2nc3ccccc3s2)cc1 (configuration not stated)	%	55
NC(=O)c1ccc(-n2cnc3cc(F)ccc32)cc1OCc1ccccc1C(F)(F)F.NC(=O)c1ccc(-n2cnc3ccc(F)cc32)cc1OCc1ccccc1C(F)(F)F	%	93
Cc1c(C)n(C2CCCC2)c2ncnc(OC3CCN(CC(=O)NC4CC4)CC3)c12	%	92
CN1CC[C@@H](Oc2cc(CNC(=O)c3ccc(-c4ccc(Cl)cc4)s3)ccc2C(F)(F)F)C1.Cl	%	64
COc1ccc(-c2cccc(NC(=O)c3ccc(F)cc3)c2)cc1CN1CCCN(C)CC1.O=C(O)C(F)(F)F	%	35
CC1(C)NC(N)=NC(=N)N1OCc1cc(Cl)cc2c1OCOC2.Cl	%	64
Cc1cc(N[C@@H](Cc2ccccc2)C(=O)NCc2cccs2)nc(NCCc2ccc(F)cc2)n1.O=C(O)C(F)(F)F	%	83
NC(=O)C1CCN(Cc2cccc(-c3ccc(-c4nc5cc(C(F)(F)F)ccc5[nH]4)cc3)c2)CC1.O=C(O)C(F)(F)F	%	94
C=C[C@H]1CN(CCCCCCC)CC[C@H]1C[C@@H](Cc1ccnc2ccc(OC)cc12)OC(=O)[C@](OC)(c1ccccc1)C(F)(F)F	%	96

----------
# Inhibition annotations
system: Plasmodium falciparum; test: GSK_TCMDC: Inhibition of Plasmodium falciparum 3D7 in whole red blood cells, using parasite LDH activity as an index of growth. Test compounds present at 2uM; assay type: functional

Query Smiles	Inhibition / %
O=C(/C=C/c1ccc(Cl)c(Cl)c1)N1CCC(CCN2CCC(c3c[nH]c4cc5c(cc34)OCO5)CC2)CC1	99
Cc1nnc(-c2ccc3ccccc3c2)c2cn(-c3cccc([N+](=O)[O-])c3)nc12	91
COC(=O)COc1cc(C(=O)NCCCCN2CCC(c3ccc4c(c3OC)CCCC4)CC2)ccc1-c1ccc(Cl)cc1	97
CCCCCCN1CCCN(Cc2ccc(C(=O)Nc3cccc(CC)c3)cc2)CC1.O=C(O)C(F)(F)F	85

----------
tested on: Plasmodium falciparum; experiment: GSK_TCMDC: Inhibition of Plasmodium falciparum Dd2 in whole red blood cells, using parasite LDH activity as an index of growth. Test compounds present at 2uM; type: functional
Label key: fulfilled means Inhibition under 60%; not fulfilled means Inhibition of 60% or more.

Compound	Assigned Label
COc1ccc(CCNC(=O)c2ccccc2O)cc1-c1ccc(C(C)(C)C)cc1	not fulfilled
CNC(=O)c1cc(S(=O)(=O)Nc2ccc(OC)cc2)cs1	fulfilled
CNC(=O)COc1ccc(Nc2nnc(-c3ccc(C)c(S(=O)(=O)NCC4CCCO4)c3)c3ccccc23)cc1 (centres undefined)	not fulfilled
c1cncc(NCc2ccc(-c3cc4ccncc4cc3OC3CCNCC3)s2)c1	fulfilled
CN1CCN(CCCN(Cc2cccc(-c3cccc(CNC4CCCC4)c3)c2)C(=O)CCC2CCCC2)CC1.O=C(O)C(F)(F)F	not fulfilled
O=C(NC1CCN(Cc2ccccc2O)C1)c1ccc(Cl)c(Cl)c1.O=C(O)C(F)(F)F (centres undefined)	not fulfilled
c1ccc(CN2CCC(NCc3cccc(-c4cncc5ccccc45)c3)CC2)cc1	fulfilled
CCOc1cc(CC)ccc1C1CCN(CCCCNC(=O)c2ccc(NC(=O)c3ccc(Cl)cc3)cc2)CC1.Cl	fulfilled

----------
tested on: Plasmodium falciparum; assay: GSK_TCMDC: Inhibition of Plasmodium falciparum 3D7 in whole red blood cells, using parasite LDH activity as an index of growth. Test compounds present at 2uM; format: functional
Listing of entries alongside the reported Inhibition.
Value Type: Inhibition (%)

Molecule	Assay Target	Unit Of Measurement	Data Value
CN(C)CCCc1cc2c(cc1Cl)CCN2C(=O)Nc1ccc(-c2ccncc2)c2ccccc12	Plasmodium falciparum	%	94
O=C(Nc1ccc(Cl)cc1)c1cc(Cl)ccc1NC(=O)C1CCc2ccccc2O1 (centres undefined)	Plasmodium falciparum	%	98
O=C(/C=C/c1ccc(Cl)c(Cl)c1)NCCCCCN1CCC(NC(=S)Nc2ccc(F)cc2F)CC1	Plasmodium falciparum	%	100
CCn1cc(-c2nc(-c3cc(OC)cc(OC)c3)no2)c(=O)c2ccccc21	Plasmodium falciparum	%	89
CCC[C@@H]([C@@H](CC1CCCCC1)C(=O)N[C@@H](CCCCNS(C)(=O)=O)C(=O)Nc1nccs1)N(O)C=O	Plasmodium falciparum	%	100
COc1cc2nc(N3CCN(C(=O)c4ccco4)CC3)nc(NCc3ccccc3)c2cc1OC	Plasmodium falciparum	%	100
CN(C)CCN(Cc1ccccc1)c1ccc([N+](=O)[O-])cc1C(F)(F)F.O=C(O)C(F)(F)F	Plasmodium falciparum	%	96
Cc1cccc2nc(C3CCN(CC4CCN(C(=O)/C=C/c5ccc(Cl)c(Cl)c5)CC4)CC3)[nH]c12	Plasmodium falciparum	%	100
O=C1CC(C(=O)Nc2cccc(-c3cccc(-c4nc5ccccc5[nH]4)c3)c2)c2ccccc2N1 (centres undefined)	Plasmodium falciparum	%	84
Cc1cc(NC(c2ccc(Cl)cc2)c2ccc3cccnc3c2O)no1 (centres undefined)	Plasmodium falciparum	%	88
Cc1cc(NCCC(=O)NCc2cccc(F)c2)nc(NCCc2ccc(F)cc2)n1.O=C(O)C(F)(F)F	Plasmodium falciparum	%	89
CCCCN(CCCC)CCCCCCNc1c2ccccc2nc2ccccc12.Cl	Plasmodium falciparum	%	95
Cc1noc(C)c1-c1ccc2c(Nc3ccccc3C(C)(C)C)c(C(=O)NCc3ccc4c(c3)OCO4)cnc2c1.Cl	Plasmodium falciparum	%	96
O=C(c1ccc2ccccc2n1)N1CCCc2cc(Br)ccc21	Plasmodium falciparum	%	97
Cc1ccccc1C(=O)NC(NC(=S)Nc1ccc([N+](=O)[O-])cc1)C(Cl)(Cl)Cl (centres undefined)	Plasmodium falciparum	%	100
CCCOc1ccc(C(F)(F)F)cc1NC(=O)c1nc2nc(C)cc(C)n2n1	Plasmodium falciparum	%	90
CC1CCN(c2nc(C(=O)Nc3ccc(F)cc3C(F)(F)F)c(C(C)C)s2)CC1.O=C(O)C(F)(F)F	Plasmodium falciparum	%	100
CCC(=O)c1cc(C(=O)NCCc2cccc(OC)c2)ccc1OC	Plasmodium falciparum	%	83
Cc1cc(C)c(C(=O)Nc2n[nH]c3nnc(-c4cccc(F)c4F)cc23)c(C)c1	Plasmodium falciparum	%	90

----------
tested on: Plasmodium falciparum; assay: GSK_TCMDC: Inhibition of Plasmodium falciparum 3D7 in whole red blood cells, using parasite LDH activity as an index of growth. Test compounds present at 2uM; format: functional
# Inhibition per entry
Value Type: Inhibition

Compound	Assay Target	Data Value
COc1cc(C(=O)Nc2cccc(-c3cn4cccc(C)c4n3)c2)cc(OC)c1OC	Plasmodium falciparum	99%
COc1ccccc1Oc1c(N(C)S(=O)(=O)c2ccc(C(C)C)cc2)nc(C(F)(F)F)nc1N(C)S(=O)(=O)c1ccc(C(C)C)cc1	Plasmodium falciparum	94%
O=C(Nc1ccc(Cl)cc1)Nc1ccc(OCC(O)CN2CCCCC2)cc1 (centres undefined)	Plasmodium falciparum	83%
COc1ccc(Nc2nc(=Nc3ccccc3)nc(NN=Cc3cc(Cl)ccc3O)[nH]2)cc1	Plasmodium falciparum	100%
CCOC(=O)NC1=NC(C)(C)N(OCCCOc2cc(Cl)c(Cl)cc2Cl)C(NC(=O)OCC)=N1	Plasmodium falciparum	91%
COc1ccc2ncc(F)c(CCN3CC4CCCC4(CNCc4ccc5c(n4)NC(=O)CS5)C3)c2n1.Cl (centres undefined)	Plasmodium falciparum	87%
COc1ccc2nccc(N3CCC(O)(CCNCc4ccc5c(n4)NC(=O)CS5)CC3)c2n1.Cl	Plasmodium falciparum	99%
O=C(/C=C/c1ccc(-c2nc3ccc(Cl)cc3[nH]2)cc1)NC1CCN(Cc2ccccc2)CC1	Plasmodium falciparum	100%
COc1cccc(C2CCN(CCN3CCC(NC(=O)c4ccc(-c5ccc(C(F)(F)F)cc5)cc4)CC3)CC2)c1	Plasmodium falciparum	99%
CS(=O)(=O)O.FC(F)(F)COc1ccc(CCNCCCCNCCc2ccc(OCC(F)(F)F)c3ccccc23)c2ccccc12	Plasmodium falciparum	99%
CNC(=O)NC1=NC(C)(C)N(OCCCOc2cc(Cl)c(Cl)cc2Cl)C(N)=N1	Plasmodium falciparum	97%
Cc1[nH]c(C)c(-c2ccc(Oc3ccc(Cl)cc3)cc2)c(=O)c1C	Plasmodium falciparum	96%
Cc1cccc(-c2nc3[nH]c(=O)cc(NC(=O)C(C)C)n3n2)c1	Plasmodium falciparum	96%
Cc1ccc(S(=O)(=O)O)cc1.N=C(N)NCCCC(=O)NCC(N)=O	Plasmodium falciparum	100%
Cc1cccc2nc(-c3cccc(-c4ccc(CNCc5cnn(-c6ccccc6)n5)cc4)c3)[nH]c12.O=C(O)C(F)(F)F	Plasmodium falciparum	100%
Cc1cccc(C)c1N1CCN(C2CCC(NC(=O)c3cc4ccccc4[nH]3)CC2)CC1 (centres undefined)	Plasmodium falciparum	100%
Cl.N=C(N)c1ccc(OCCCCCOc2ccc(C(=N)N)cc2)cc1 [PENTAMIDINE HYDROCHLORIDE]	Plasmodium falciparum	99%
COc1ccc2ncc(C#N)c(CCN3CCC(NCc4ccc5c(c4)OCCO5)CC3)c2c1.Cl	Plasmodium falciparum	96%
O=[N+]([O-])c1ccc2ncnc(Nc3ccc(F)c(Cl)c3)c2c1	Plasmodium falciparum	100%

The measured values listed here are drawn from ChEMBL document CHEMBL1157539.
